All figures here come from PubChem BioAssay (NCATS).

# ASSAY_SUMMARY: qHTS of pediatric cancer cell lines to identify multiple opportunities for drug repurposing: Primary screen for BT-37 cells (AID 1347094)
# EXPERIMENTAL_PARAMETERS: BT-37 viability, CellTiter-Glo luminescence, 48 h; series mostly up to 57.3 µM
Results filed as inconclusive are left out. Activity calls are given as the source filed them. Calls follow the shape of the dose curve; as a rule, active = well fitted cell-killing curve with a large enough effect; inconclusive = small, poorly fitted or top-dose-only effect; inactive = flat fitted curve, though single readings scatter.
Form entry, call: pick from T (active), F (inactive)

Test call, this compound: Cc1[nH]nc2ccc(-c3cncc(OC[C@@H](N)Cc4c[nH]c5ccccc45)c3)cc12
T

Test call, this compound: COc1cccc2c1[C@]13CCN(CC4CC4)[C@H](C2)[C@]1(OC)CCC(=O)C3
F

Test call, this compound: Nc1ccc(Cl)cc1
F

Test call, this compound: CCCCCCCCCCCCCCCC[N+](C)(C)C
T

Test call, this compound: O=[N+]([O-])c1c(Cl)c(Cl)cc(Cl)c1Cl
F

Test call, this compound: O=C(Oc1ccc([N+](=O)[O-])cc1)N1CCN(Cc2cccc(Oc3ccccc3)c2)CC1
F

Test call, this compound: O=S(=O)(O)C(F)(F)C(F)(F)C(F)(F)C(F)(F)F
F

Test call, this compound: C[C@@H]1CC[C@@]2(OC1)O[C@H]1C[C@H]3[C@@H]4CC=C5C[C@@H](O[C@@H]6O[C@H](CO)[C@@H](O[C@@H]7O[C@@H](C)[C@H](O)[C@@H](O)[C@@H]7O)[C@H](O)[C@@H]6O[C@@H]6O[C@@H](C)[C@H](O)[C@@H](O)[C@@H]6O)CC[C@]5(C)[C@@H]4CC[C@]3(C)[C@@H]1[C@H]2C
T
